MIC listing for selected compounds.
- Test system: Klebsiella pneumoniae
- ASSAY NOTES: microbe, parasite or virus in culture

Example entries begin here.
| COMPOUND | EXPERIMENTAL RESULT |
| --- | --- |
| O=C(Nc1ncco1)NC12CC3CC(CC(C3)C1)C2 | > 200 mg/L |
| CC(C)c1nnc(NC(=O)NC23CC4CC(CC(C4)C2)C3)o1 | > 200 mg/L |
| O=C(Nc1ncccn1)NC12CC3CC(CC(C3)C1)C2 | > 200 mg/L |
| Cc1noc(NC(=O)NC23CC4CC(CC(C4)C2)C3)c1Cl | > 200 mg/L |
| O=C(Nc1ccccn1)NC12CC3CC(CC(C3)C1)C2 | > 200 mg/L |

Now look at this entry.
Please report the recorded MIC for Cc1nnc(NC(=O)NC23CC4CC(CC(C4)C2)C3)o1 .
> 200 mg/L

###

- Test system: Klebsiella pneumoniae
- ASSAY NOTES: microbe, parasite or virus in culture
Each item that follows carries a reported MIC.

Some compounds with recorded MIC:
| COMPOUND | MIC |
| --- | --- |
| CCCn1nc(NC(=O)NC2C3CC4CC(C3)CC2C4)cc1C (stereo unspecified) | > 200 µg/mL |
| O=C(Nc1nnc(C2CC2)o1)NC1C2CC3CC(C2)CC1C3 (stereo unspecified) | > 200 µg/mL |
| Cc1cc(NC(=O)NC23CC4CC(CC(C4)C2)C3)on1 | > 200 µg/mL |

Can you share its MIC? I mean this compound: O=C(Nc1ncncn1)NC12CC3CC(CC(C3)C1)C2
> 200 µg/mL

I am curious: what MIC value has been reported for O=C(Nc1nnc(C2CCC2)o1)NC1C2CC3CC(C2)CC1C3 (stereo unspecified) ?
> 200 µg/mL

Look up MIC: Cc1cc(CNC(=O)NC23CC4CC(CC(C4)C2)C3)no1
> 200 µg/mL

Recorded MIC for O=C(Nc1nnc(-c2cccs2)o1)NC12CC3CC(CC(C3)C1)C2 , please?
> 200 µg/mL

# get_value(readout='MIC', item= Cn1cc(NC(=O)NC23CC4CC(CC(C4)C2)C3)cn1 )
> 200 µg/mL

Please report the recorded MIC for Cc1csc(NC(=O)NC2C3CC4CC(C3)CC2C4)n1 (stereo unspecified) .
> 200 µg/mL

MIC lookup needed for COc1ccc(NS(=O)(=O)c2ccc(NC(=O)NC34CC5CC(CC(C5)C3)C4)cc2)nn1 , thanks.
> 200 µg/mL

Recorded MIC for CCn1nc(NC(=O)NC23CC4CC(CC(C4)C2)C3)cc1C , please?
> 200 µg/mL

###

- System: Bacillus anthracis
- ASSAY NOTES: microbe, parasite or virus in culture
- STUDY CONDITIONS: Sterne
Listing of recorded MIC by entry.

For orientation, consider the following solved cases.
| COMPOUND | MIC |
| --- | --- |
| Cc1ccnc(NS(=O)(=O)c2ccc(NC(=O)NC34CC5CC(CC(C5)C3)C4)cc2)n1 | 100 mg/L |
| Cc1onc(NC(=O)NC23CC4CC(CC(C4)C2)C3)c1Br | > 200 mg/L |
| O=C(Nc1ccon1)NC12CC3CC(CC(C3)C1)C2 | > 200 mg/L |
| CC(C)(C)c1cc(NC(=O)NC23CC4CC(CC(C4)C2)C3)no1 | > 200 mg/L |
| O=C(Nc1cccnc1)NC12CC3CC(CC(C3)C1)C2 | > 200 mg/L |
| O=C(Nc1ccncn1)NC12CC3CC(CC(C3)C1)C2 | > 200 mg/L |

For the compound Cc1csc(NC(=O)NC2C3CC4CC(C3)CC2C4)n1 (stereo not drawn) , what MIC is on record?
> 200 mg/L

Requested read-out: MIC. Entry: O=C(Nc1ncncn1)NC12CC3CC(CC(C3)C1)C2
> 200 mg/L

So what does the record say about MIC for Cn1cc(NC(=O)NC23CC4CC(CC(C4)C2)C3)cn1 ?
> 200 mg/L

Which measured MIC value corresponds to CC(C)(C)c1cc(NC(=O)NC2C3CC4CC(C3)CC2C4)no1 (stereo not drawn) ?
> 200 mg/L

Look up MIC: O=C(Nc1nnc(C2CCC2)o1)NC1C2CC3CC(C2)CC1C3 (stereo not drawn)
25 mg/L
